assay: In vivo pharmacokinetics; conditions: beagle, intravenous, 2 mg/kg, dog, dose i.v./p.o. 2/5 mg/kg, read-out: Vss
readout.kind: Vd (L/kg)
Provide the reading as a plain figure in L/kg.

(Q) Fill in: Vd of "Cc1c(-c2ccnc(C(F)(F)F)c2)ncn1CC(=O)Nc1ccc(-c2cnccn2)cn1" is ___
(A) 0.39

----------
test system: MDR1; test: Permeability in MDR1-MDCKII cells; format: in vitro ADME; conditions: dog, MDCK-MDR1; apical to basolateral, 10 μmol/L, 2 hours; read-out: MDCK PappA-B
readout.kind: Papp A→B at 2 h, 10 μmol/L (×10⁻⁶ cm/s)
Provide the reading as a plain figure in ×10⁻⁶ cm/s.

(Q) Fill in: Papp A→B at 2 h, 10 μmol/L of Cc1c(-c2ccnc(C(F)(F)F)c2)ncn1CC(=O)Nc1ccc(-c2cnccn2)cn1 [RXC004] is ___
(A) 15

----------
assay: In vivo pharmacokinetics; set-up: species or system rat (male Sprague Dawley); details: male, Sprague Dawley, in vivo, po; rat, 5 mg/kg p.o.; read-out: C24h (p.o.)
readout.kind: concentration at 24 h (nM)
Provide the reading as a plain figure in nM.

(Q) Fill in: concentration at 24 h of "Cc1c(-c2ccnc(C(F)(F)F)c2)ncn1CC(=O)Nc1ccc(-c2cnccn2)cn1" is ___
(A) 9

----------
test: Permeability in Caco-2 cells; type: in vitro ADME; conditions: human, basolateral to apical, read-out: Caco-2 PappB-A
readout.kind: Papp B→A at 2 h, 10 μmol/L
Could you give the number and then its unit, please?

(Q) Fill in: Papp B→A at 2 h, 10 μmol/L of Cc1c(-c2ccnc(C(F)(F)F)c2)ncn1CC(=O)Nc1ccc(-c2cnccn2)cn1 [RXC004] is ___
(A) 21.8 ×10⁻⁶ cm/s

----------
test system: MDR1; experiment: Permeability in MDR1-MDCKII cells; format: in vitro ADME; conditions: dog, MDCK-MDR1; basolateral to apical, 10 μmol/L, 2 hours; read-out: MDCK PappB-A
readout.kind: Papp B→A at 2 h, 10 μmol/L
Could you give the number and then its unit, please?

(Q) Fill in: Papp B→A at 2 h, 10 μmol/L of Cc1c(-c2ccnc(C(F)(F)F)c2)ncn1CC(=O)Nc1ccc(-c2cnccn2)cn1 [RXC004] is ___
(A) 51.9 ×10⁻⁶ cm/s

----------
target: CYP2C9 (Homo sapiens)
Sequence (P11712 whole entry): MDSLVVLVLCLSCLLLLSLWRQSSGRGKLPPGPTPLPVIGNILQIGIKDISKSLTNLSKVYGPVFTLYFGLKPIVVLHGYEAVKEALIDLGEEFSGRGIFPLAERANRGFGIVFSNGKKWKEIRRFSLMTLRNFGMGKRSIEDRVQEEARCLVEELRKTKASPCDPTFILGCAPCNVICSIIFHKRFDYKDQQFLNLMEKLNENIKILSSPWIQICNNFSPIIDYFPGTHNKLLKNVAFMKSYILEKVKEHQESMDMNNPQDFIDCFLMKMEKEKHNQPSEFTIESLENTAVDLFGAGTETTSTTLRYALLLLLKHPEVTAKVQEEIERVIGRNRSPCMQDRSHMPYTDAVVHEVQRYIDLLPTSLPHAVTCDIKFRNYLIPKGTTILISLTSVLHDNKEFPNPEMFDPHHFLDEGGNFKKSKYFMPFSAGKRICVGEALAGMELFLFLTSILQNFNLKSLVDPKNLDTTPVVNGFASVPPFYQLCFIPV
pIC50: −log10 of the molar value.
readout.kind: pIC50

(Q) API: value(readout=pIC50, system=CYP2C9 (Homo sapiens)) for record Cc1c(-c2ccnc(C(F)(F)F)c2)ncn1CC(=O)Nc1ccc(-c2cnccn2)cn1 [RXC004]
(A) < 4.60

----------
Test: In vivo pharmacokinetics
Parameters: species or system mouse (male CD1)
Settings: male, CD1, in vivo, intravenous, 2 mg/kg; mouse, dose i.v./p.o. 2/5 mg/kg
Description: In vivo pharmacokinetics: RXC004 was dosed to male Sprague Dawley rats, male CD1 mice or dog (beagle) by intravenous and oral routes. Bioanalysis of blood and plasma samples was performed by LC/MS-MS using a Waters TQS or TQMS mass spectrometer. Pharmacokinetic information was derived using WinNonlin software (Certara).
readout.kind: clearance

(Q) Fill in: clearance of "Cc1c(-c2ccnc(C(F)(F)F)c2)ncn1CC(=O)Nc1ccc(-c2cnccn2)cn1" is ___
(A) 2.9 mL/min/kg

This collection of values is drawn from paper PMC10010340.
